species: Rattus norvegicus; assay: Open TG-GATES - Regimen: Single; type: toxicity, organism-based, Sprague-Dawley; parameters: regimen Single, gender Male, age 6 weeks; conditions: in vivo, po, 100 mg/kg, 3 h, tissue Blood, route gavage, dose level Low
Recorded Eos, one value per entry.
Remember to quote the unit after the number.

For orientation, consider the following solved cases.
MOLECULE	Eos
NC(N)=Nc1nc(CSCCC(N)=NS(N)(=O)=O)cs1	0.6%
CCOC(=O)CCC(=O)O[C@H]1[C@H](O[C@@H]2[C@@H](C)[C@H](O[C@H]3C[C@@](C)(OC)[C@@H](O)[C@H](C)O3)[C@@H](C)C(=O)O[C@H](CC)[C@@](C)(O)[C@H](O)[C@@H](C)C(=O)[C@H](C)C[C@@]2(C)O)O[C@H](C)C[C@@H]1N(C)C [ERYTHROMYCIN ETHYLSUCCINATE]	0.8%
COC1=CC(=O)C[C@@H](C)[C@]12Oc1c(Cl)c(OC)cc(OC)c1C2=O	0.8%

Continue with the next molecule.
Exercise: Param item = COc1ccc2[nH]c([S+]([O-])Cc3ncc(C)c(OC)c3C)nc2c1 (centres undefined) ; retrieve measured Eos.
Key: 1.2%
